// provenance: ChEMBL document CHEMBL2380308

# Tested on: Plasmodium falciparum
# assay method text: Antiplasmodial activity against Plasmodium falciparum D6
# Format: functional, organism-based
The label 1 (yes) is reserved for IC50 strictly under 20 µM; 0 (no) covers values equal to or above it.

Consider the following illustrative entries.
Does this compound meet the criterion IC50 < 20 µM? C[C@H]1C(CCO)=CC(=O)[C@H]2[C@H]1CC[C@H]1C(C)(C)CCC[C@]21C 1 (yes)

// query: CC[C@H](/C=C/[C@@H](C)[C@H]1CC[C@H]2[C@@H]3CC=C4C[C@@H](O)CC[C@]4(C)[C@H]3CC[C@]12C)C(C)C 0 (no)

// query: C=C1C(CCOC(=O)/C=C/c2ccc(O)c(O)c2)=CC(=O)[C@H]2[C@H]1CC[C@H]1C(C)(C)CCC[C@]21C 1 (yes)

// query: CC1(C)CC[C@]2(C(=O)O)CC[C@]3(C)C(=CC[C@@H]4[C@@]5(C)CC[C@H](O)C(C)(C)[C@@H]5CC[C@]43C)[C@@H]2C1 0 (no)

// query: CC(=O)O[C@@]1(C)CCC[C@]2(C)[C@H]3Cc4occc4[C@H](C)[C@@H]3CC[C@@]12O 0 (no)

// query: CC[C@H](/C=C/[C@@H](C)[C@H]1CC[C@H]2[C@@H]3CC=C4C[C@@H](O[C@@H]5OC[C@@H](O)[C@H](O)[C@H]5O[C@@H]5O[C@H](CO)[C@@H](O)[C@H](O)[C@H]5O)CC[C@]4(C)[C@H]3CC[C@]12C)C(C)C 1 (yes)

With those in mind, consider the next compound.
Does this compound meet the criterion IC50 < 20 µM? CC[C@H](CC[C@@H](C)[C@H]1CC[C@H]2[C@@H]3CC=C4C[C@@H](O)CC[C@]4(C)[C@H]3CC[C@]12C)C(C)C 0 (no)
